- System Under Test: Serine/threonine-protein kinase 4 (Homo sapiens) (UniProt Q13043);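 note: mean inhibition of MST1, reported as part of the GSK PKIS dataset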
- Sequence (Q13043 whole entry): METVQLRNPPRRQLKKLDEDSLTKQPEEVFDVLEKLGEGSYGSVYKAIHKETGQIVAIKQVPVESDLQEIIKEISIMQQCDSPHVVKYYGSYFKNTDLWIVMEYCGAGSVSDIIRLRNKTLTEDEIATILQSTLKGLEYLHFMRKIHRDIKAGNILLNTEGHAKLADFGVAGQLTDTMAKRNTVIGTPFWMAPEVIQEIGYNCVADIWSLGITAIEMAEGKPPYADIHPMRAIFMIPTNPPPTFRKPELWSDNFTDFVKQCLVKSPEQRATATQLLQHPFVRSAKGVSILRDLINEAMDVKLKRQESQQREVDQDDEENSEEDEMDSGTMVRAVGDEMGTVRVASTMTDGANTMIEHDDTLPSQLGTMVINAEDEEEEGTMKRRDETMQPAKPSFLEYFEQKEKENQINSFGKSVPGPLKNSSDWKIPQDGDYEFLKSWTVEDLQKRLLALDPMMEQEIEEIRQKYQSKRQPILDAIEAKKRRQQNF
- Conditions: at 0.1 µM
Readout Type: inhibition (%)
Kindly provide the numeric value in % only, without the unit symbol.

Sample records with inhibition:
| Compound | Unit Spec | Reported Measurement |
| --- | --- | --- |
| NS(=O)(=O)c1ccc(N/C=C2\C(=O)Nc3ccc4ncsc4c32)cc1 | % | 70.2 |
| CCn1c(-c2nonc2N)nc2c(C#CC(C)(C)O)ncc(OCC3CCNCC3)c21 | % | 8.62 |
| NC(=O)c1sc(-n2cnc3cc(C(F)(F)F)ccc32)cc1OCc1ccccc1Br | % | 1.82 |
| CCn1c(-c2nonc2N)nc2c(C#CCN)ncc(OCCCN)c21 | % | 2 |
| COc1cccc(COc2cc(-n3cnc4ccccc43)sc2C(N)=O)c1 | % | -1.11 |
| CCn1c(-c2nonc2N)nc2c(C#CC(C)(C)O)ncc(OC[C@@H]3CCCN3)c21 | % | 0.46 |

Reported inhibition for `CCn1c(-c2nonc2N)nc2c(C#CC(C)(C)O)nc(O[C@@H](CN)c3ccccc3)cc21` : what is it?
3.02

Form field: reported inhibition of `Cc1cc(-c2ccco2)cc(C)c1/C=C/c1cncc(-c2nn[nH]n2)c1`
0.26

Given `COc1cc(C=NNc2ncnc3c2cnn3Cc2ccccc2)ccc1O` , state its recorded inhibition.
-3.73

* * *

- System Under Test: Serine/threonine-protein kinase 26 (Homo sapiens) (UniProt Q9P289);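 note: mean inhibition of MST4 kinase activity, reported from the GSK PKIS inhibitor-set screening panel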
- Sequence (Q9P289 2-416 limits assumed): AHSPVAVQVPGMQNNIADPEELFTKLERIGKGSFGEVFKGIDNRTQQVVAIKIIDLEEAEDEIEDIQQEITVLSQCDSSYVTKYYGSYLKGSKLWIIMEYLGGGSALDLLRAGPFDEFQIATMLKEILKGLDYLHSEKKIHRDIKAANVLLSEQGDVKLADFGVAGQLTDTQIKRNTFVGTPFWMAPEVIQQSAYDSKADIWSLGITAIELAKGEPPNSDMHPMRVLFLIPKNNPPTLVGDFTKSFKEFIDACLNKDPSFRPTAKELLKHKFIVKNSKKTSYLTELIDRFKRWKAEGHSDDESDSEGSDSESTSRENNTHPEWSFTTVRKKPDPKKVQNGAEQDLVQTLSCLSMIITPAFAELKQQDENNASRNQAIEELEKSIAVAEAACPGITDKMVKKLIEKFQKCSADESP
- Conditions: at 1 µM
Readout Type: inhibition (%)
Only the number, expressed in %, is required.

Sample answers from the record:
| Compound | Reported Measurement |
| --- | --- |
| NC(=O)c1sc(-n2cnc3cc(C(F)(F)F)ccc32)cc1OCc1ccccc1Br | 3.19 |
| Nc1nonc1-c1nc2cnccc2n1C1CCCCC1 | 3.95 |
| CCn1c(-c2nonc2N)nc2c(C#CCN)ncc(OCCCN)c21 | 2.79 |

Now look at this one.
May I ask what inhibition has been recorded for `COc1cccc(COc2cc(-n3cnc4ccccc43)sc2C(N)=O)c1` ?
-1.08

* * *

- System Under Test: Tyrosine-protein kinase CSK (Homo sapiens);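 note: each value is an averaged inhibition reading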
- Conditions: at 1 µM
Parameter inhibition: see the listing below.
Report the value in % with no unit label.

Guide cases for inhibition, answers given:
| Compound | inhibition / % |
| --- | --- |
| CCn1c(-c2nonc2N)nc2c(C#CC(C)(C)O)ncc(OC[C@@H]3CCCN3)c21 | -0.82 |
| COc1cc(C=NNc2ncnc3c2cnn3Cc2ccccc2)ccc1O | 2.56 |
| COc1cc2c(cc1Nc1nc(Nc3ccsc3C(N)=O)c3cc[nH]c3n1)N(C(=O)CN(C)C)CCC2 | -4.71 |
| COc1cccc(COc2cc(-n3cnc4ccccc43)sc2C(N)=O)c1 | 0.56 |

Query the reported inhibition for Tyrosine-protein kinase CSK (Homo sapiens); item: `NS(=O)(=O)c1ccc(-c2ccc3c(NC(=O)C4CC4)n[nH]c3c2)cc1`
2.04

* * *

- System Under Test: Receptor tyrosine-protein kinase erbB-2 (Homo sapiens) (UniProt P04626);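 note: each value is the mean percent inhibition of ERBB2 over replicate measurements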
- Sequence (P04626 whole entry): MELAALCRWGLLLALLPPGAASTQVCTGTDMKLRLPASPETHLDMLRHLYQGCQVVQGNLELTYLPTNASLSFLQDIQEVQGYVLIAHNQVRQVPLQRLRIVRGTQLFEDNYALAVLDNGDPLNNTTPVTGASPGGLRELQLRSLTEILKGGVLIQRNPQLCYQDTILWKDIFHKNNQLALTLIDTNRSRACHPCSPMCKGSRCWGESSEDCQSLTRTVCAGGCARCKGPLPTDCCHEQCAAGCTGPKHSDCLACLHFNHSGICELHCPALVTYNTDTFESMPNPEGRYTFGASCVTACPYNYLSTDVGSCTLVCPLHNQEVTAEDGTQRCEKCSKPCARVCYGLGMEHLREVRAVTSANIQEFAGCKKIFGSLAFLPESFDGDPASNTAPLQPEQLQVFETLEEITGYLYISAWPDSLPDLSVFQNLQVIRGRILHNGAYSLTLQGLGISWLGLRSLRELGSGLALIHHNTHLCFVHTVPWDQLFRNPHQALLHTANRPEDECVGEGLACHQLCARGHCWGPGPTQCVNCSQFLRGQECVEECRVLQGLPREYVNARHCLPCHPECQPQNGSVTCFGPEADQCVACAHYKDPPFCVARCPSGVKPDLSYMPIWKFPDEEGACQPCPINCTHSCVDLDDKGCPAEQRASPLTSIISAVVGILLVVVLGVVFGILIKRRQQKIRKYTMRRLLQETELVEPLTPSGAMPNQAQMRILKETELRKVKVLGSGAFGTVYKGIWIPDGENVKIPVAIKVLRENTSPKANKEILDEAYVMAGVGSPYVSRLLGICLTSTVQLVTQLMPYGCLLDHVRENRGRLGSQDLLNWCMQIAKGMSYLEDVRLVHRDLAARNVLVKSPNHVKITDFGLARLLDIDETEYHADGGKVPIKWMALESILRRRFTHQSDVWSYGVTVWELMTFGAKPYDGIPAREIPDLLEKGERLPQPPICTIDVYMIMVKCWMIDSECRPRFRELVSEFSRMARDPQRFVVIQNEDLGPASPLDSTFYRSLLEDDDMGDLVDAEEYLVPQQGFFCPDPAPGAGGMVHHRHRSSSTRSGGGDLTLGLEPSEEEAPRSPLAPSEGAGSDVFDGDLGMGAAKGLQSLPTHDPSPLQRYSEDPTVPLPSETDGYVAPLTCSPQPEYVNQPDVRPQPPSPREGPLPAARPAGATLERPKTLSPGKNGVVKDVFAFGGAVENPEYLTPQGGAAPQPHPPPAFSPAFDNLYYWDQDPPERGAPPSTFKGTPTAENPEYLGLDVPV
- Conditions: at 0.1 µM
Readout Type: inhibition (%)
Respond numerically; units are % and should not be typed.

Use these answered entries as a reference point.
| Compound | Unit Spec | inhibition |
| --- | --- | --- |
| NS(=O)(=O)c1ccc(-c2ccc3c(NC(=O)C4CC4)n[nH]c3c2)cc1 | % | -0.2 |
| CCn1c(-c2nonc2N)nc2c(C#CC(C)(C)O)ncc(OC[C@@H]3CCCN3)c21 | % | 0.95 |
| COc1cc(C=NNc2ncnc3c2cnn3Cc2ccccc2)ccc1O | % | -6.92 |
| COc1cc2c(cc1Nc1nc(Nc3ccsc3C(N)=O)c3cc[nH]c3n1)N(C(=O)CN(C)C)CCC2 | % | -0.5 |

Looking for the measured inhibition of `Cc1cc(-c2ccco2)cc(C)c1/C=C/c1cncc(-c2nn[nH]n2)c1` , can you help?
3.01

* * *

- System Under Test: Tyrosine-protein kinase ABL2 (Homo sapiens) (UniProt P42684)
- Sequence (P42684 whole entry): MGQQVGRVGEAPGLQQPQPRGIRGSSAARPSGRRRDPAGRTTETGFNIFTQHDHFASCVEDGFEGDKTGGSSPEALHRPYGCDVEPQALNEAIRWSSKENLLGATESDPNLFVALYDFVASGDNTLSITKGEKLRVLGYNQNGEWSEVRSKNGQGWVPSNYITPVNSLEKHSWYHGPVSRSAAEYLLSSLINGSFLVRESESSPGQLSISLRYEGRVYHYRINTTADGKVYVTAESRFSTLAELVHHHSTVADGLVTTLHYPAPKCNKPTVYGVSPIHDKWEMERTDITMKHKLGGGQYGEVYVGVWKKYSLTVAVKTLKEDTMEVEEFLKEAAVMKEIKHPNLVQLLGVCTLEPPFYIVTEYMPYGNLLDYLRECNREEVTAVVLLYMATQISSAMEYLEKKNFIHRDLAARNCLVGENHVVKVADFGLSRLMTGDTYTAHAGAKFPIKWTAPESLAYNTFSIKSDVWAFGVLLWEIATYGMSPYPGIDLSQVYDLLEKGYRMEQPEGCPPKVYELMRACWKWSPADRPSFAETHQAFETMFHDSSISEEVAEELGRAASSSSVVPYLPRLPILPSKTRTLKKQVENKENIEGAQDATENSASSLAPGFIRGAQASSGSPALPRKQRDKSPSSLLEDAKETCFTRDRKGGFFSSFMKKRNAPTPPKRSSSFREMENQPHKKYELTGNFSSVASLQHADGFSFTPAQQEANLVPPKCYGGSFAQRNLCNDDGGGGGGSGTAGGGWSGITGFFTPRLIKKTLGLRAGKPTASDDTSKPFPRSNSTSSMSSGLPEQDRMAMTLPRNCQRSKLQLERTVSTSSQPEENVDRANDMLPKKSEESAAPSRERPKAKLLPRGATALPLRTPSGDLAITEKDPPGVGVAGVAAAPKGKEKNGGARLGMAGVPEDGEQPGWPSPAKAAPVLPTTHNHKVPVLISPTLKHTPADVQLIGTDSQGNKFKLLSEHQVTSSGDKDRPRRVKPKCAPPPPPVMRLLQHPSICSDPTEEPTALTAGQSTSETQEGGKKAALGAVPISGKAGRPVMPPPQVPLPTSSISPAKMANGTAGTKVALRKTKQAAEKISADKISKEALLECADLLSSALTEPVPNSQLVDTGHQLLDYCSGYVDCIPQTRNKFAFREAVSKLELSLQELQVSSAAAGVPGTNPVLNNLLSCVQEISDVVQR
- Conditions: at 1 µM
- Description: GSK_PKIS: ARG mean inhibition at 1 uM [Nanosyn]
Listed molecules paired with reported inhibition
Quick reminder: number only, in %, skip the unit.

Example molecules with recorded inhibition:
| Compound | inhibition [%] |
| --- | --- |
| CCn1c(-c2nonc2N)nc2c(C#CCN)ncc(OCCCN)c21 | -0.76 |
| CCn1c(-c2nonc2N)nc2c(C#CC(C)(C)O)nc(O[C@@H](CN)c3ccccc3)cc21 | 6.91 |
| CCn1c(-c2nonc2N)nc2c(C#CC(C)(C)O)ncc(OC[C@@H]3CCCN3)c21 | 2.28 |
| Cc1cc(-c2ccco2)cc(C)c1/C=C/c1cncc(-c2nn[nH]n2)c1 | 8.69 |
| COc1cccc(-n2ncc3c(N/N=C/c4ccncc4)ncnc32)c1 | 82.8 |

Tell me the measured inhibition of `Nc1nonc1-c1nc2cnccc2n1C1CCCCC1` , please.
3.74

* * *

- System Under Test: Leucine-rich repeat serine/threonine-protein kinase 2 (Homo sapiens)
- Conditions: at 0.1 µM
Readout Type: inhibition (%)
Record the value in %, omitting the unit from your answer.

| Compound | System Under Test | inhibition [%] |
| --- | --- | --- |
| Nc1nonc1-c1nc2cnccc2n1C1CCCCC1 | Leucine-rich repeat serine/threonine-protein kinase 2 (Homo sapiens) | 4.67 |
| NC(=O)c1sc(-n2cnc3cc(C(F)(F)F)ccc32)cc1OCc1ccccc1Br | Leucine-rich repeat serine/threonine-protein kinase 2 (Homo sapiens) | 3.39 |
| COc1cc(C=NNc2ncnc3c2cnn3Cc2ccccc2)ccc1O | Leucine-rich repeat serine/threonine-protein kinase 2 (Homo sapiens) | -2.34 |
| CCn1c(-c2nonc2N)nc2c(C#CC(C)(C)O)ncc(OCC3CCNCC3)c21 | Leucine-rich repeat serine/threonine-protein kinase 2 (Homo sapiens) | -2.92 |
| NS(=O)(=O)c1ccc(-c2ccc3c(NC(=O)C4CC4)n[nH]c3c2)cc1 | Leucine-rich repeat serine/threonine-protein kinase 2 (Homo sapiens) | 2.77 |

Recorded inhibition for `Cc1cc(-c2ccco2)cc(C)c1/C=C/c1cncc(-c2nn[nH]n2)c1` with Leucine-rich repeat serine/threonine-protein kinase 2 (Homo sapiens), please?
4.45

Please state recorded inhibition (tested on Leucine-rich repeat serine/threonine-protein kinase 2 (Homo sapiens)) of `CCn1c(-c2nonc2N)nc2c(C#CCN)ncc(OCCCN)c21`;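 note: reported values are averaged percent inhibition of LRRK2 kinase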
3.78

* * *

Below is a list of entries, each paired with its recorded inhibition value.
- System Under Test: Serine/threonine-protein kinase PLK1 (Homo sapiens);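 note: reported values are mean PLK1 inhibition, measured as part of the GSK PKIS profiling set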
- Conditions: at 0.1 µM
Please state the figure in %; there is no need to write the unit.

| Compound | Readout Type | Unit Spec | Reported Measurement |
| --- | --- | --- | --- |
| COc1cccc(-n2ncc3c(N/N=C/c4ccncc4)ncnc32)c1 | inhibition | % | 2.19 |
| CCn1c(-c2nonc2N)nc2c(C#CCN)ncc(OCCCN)c21 | inhibition | % | -5.66 |
| CCn1c(-c2nonc2N)nc2c(C#CC(C)(C)O)nc(O[C@@H](CN)c3ccccc3)cc21 | inhibition | % | 0.95 |
| Nc1nonc1-c1nc2cnccc2n1C1CCCCC1 | inhibition | % | -2.48 |
| Cc1cc(-c2ccco2)cc(C)c1/C=C/c1cncc(-c2nn[nH]n2)c1 | inhibition | % | 1.22 |

Recorded inhibition of `CCn1c(-c2nonc2N)nc2c(C#CC(C)(C)O)ncc(OCC3CCNCC3)c21` , please.
4.55

Entry `NS(=O)(=O)c1ccc(-c2ccc3c(NC(=O)C4CC4)n[nH]c3c2)cc1` : reported inhibition = ?
2.16

Please look up its inhibition: `NS(=O)(=O)c1ccc(N/C=C2\C(=O)Nc3ccc4ncsc4c32)cc1`
4.2

* * *

Reported inhibition values follow for various compounds
- System Under Test: Serine/threonine-protein kinase PAK 1 (Homo sapiens);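 note: reported values are mean percent inhibition of PAK1 activity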
- Conditions: at 1 µM
Just the number in %, nothing appended.

Recorded inhibition, per entry:
| Compound | System Under Test | Unit Spec | inhibition |
| --- | --- | --- | --- |
| COc1cc2c(cc1Nc1nc(Nc3ccsc3C(N)=O)c3cc[nH]c3n1)N(C(=O)CN(C)C)CCC2 | Serine/threonine-protein kinase PAK 1 (Homo sapiens) | % | 0.73 |
| CCn1c(-c2nonc2N)nc2c(C#CC(C)(C)O)ncc(OCC3CCNCC3)c21 | Serine/threonine-protein kinase PAK 1 (Homo sapiens) | % | 7.18 |
| NS(=O)(=O)c1ccc(-c2ccc3c(NC(=O)C4CC4)n[nH]c3c2)cc1 | Serine/threonine-protein kinase PAK 1 (Homo sapiens) | % | 2.13 |
| COc1cccc(COc2cc(-n3cnc4ccccc43)sc2C(N)=O)c1 | Serine/threonine-protein kinase PAK 1 (Homo sapiens) | % | 2.97 |

Return reported inhibition; argument: `COc1cccc(-n2ncc3c(N/N=C/c4ccncc4)ncnc32)c1`
7.75

* * *

- System Under Test: Mitogen-activated protein kinase kinase kinase kinase 2 (Homo sapiens);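 note: reported value is a mean of MAP4K2 inhibition at 1 µM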
- Sequence (whole entry): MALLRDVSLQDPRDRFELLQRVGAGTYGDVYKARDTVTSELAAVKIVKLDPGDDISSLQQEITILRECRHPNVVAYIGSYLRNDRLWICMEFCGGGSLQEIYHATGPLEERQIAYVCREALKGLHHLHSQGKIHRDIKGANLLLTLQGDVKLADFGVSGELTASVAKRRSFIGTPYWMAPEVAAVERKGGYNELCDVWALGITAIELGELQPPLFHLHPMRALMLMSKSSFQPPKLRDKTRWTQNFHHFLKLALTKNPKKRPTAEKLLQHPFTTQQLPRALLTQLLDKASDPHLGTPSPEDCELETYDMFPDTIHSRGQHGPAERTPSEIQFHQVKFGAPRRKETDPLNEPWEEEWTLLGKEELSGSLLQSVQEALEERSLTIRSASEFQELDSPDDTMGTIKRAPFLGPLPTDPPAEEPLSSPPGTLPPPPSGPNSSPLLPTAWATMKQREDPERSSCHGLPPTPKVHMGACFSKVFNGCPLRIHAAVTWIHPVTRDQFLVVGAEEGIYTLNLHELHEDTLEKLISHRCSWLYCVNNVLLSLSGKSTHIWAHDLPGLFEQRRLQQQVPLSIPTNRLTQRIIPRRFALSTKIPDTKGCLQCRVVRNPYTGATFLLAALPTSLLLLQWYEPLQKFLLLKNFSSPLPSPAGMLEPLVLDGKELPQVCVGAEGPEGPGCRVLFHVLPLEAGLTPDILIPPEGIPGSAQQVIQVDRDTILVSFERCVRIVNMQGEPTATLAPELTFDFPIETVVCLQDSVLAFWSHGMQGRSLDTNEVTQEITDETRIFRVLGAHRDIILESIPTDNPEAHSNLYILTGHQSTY
- Conditions: at 1 µM
Rule: 1 for inhibition not less than 5%, 0 for anything less.

| Compound | Category |
| --- | --- |
| Fc1ccc(-c2ncn(C3CCNCC3)c2-c2ccnc(Oc3ccccc3)n2)cc1 | 0 |
| NC(=O)c1sc(-n2cnc3cc(C(F)(F)F)ccc32)cc1OCc1ccccc1Br | 1 |
| CCn1c(-c2nonc2N)nc2c(C#CC(C)(C)O)ncc(OC[C@@H]3CCCN3)c21 | 0 |
| COc1cc2c(cc1Nc1nc(Nc3ccsc3C(N)=O)c3cc[nH]c3n1)N(C(=O)CN(C)C)CCC2 | 1 |
| NS(=O)(=O)c1ccc(N/C=C2\C(=O)Nc3ccc4ncsc4c32)cc1 | 1 |

Has `COc1cc(C=NNc2ncnc3c2cnn3Cc2ccccc2)ccc1O` a recorded inhibition greater than or equal to 5%?
0

Does the molecule `CCn1c(-c2nonc2N)nc2c(C#CCN)ncc(OCCCN)c21` have recorded inhibition that is 5% or more?
0

For this molecule, is measured inhibition 5% or higher? `COc1cccc(COc2cc(-n3cnc4ccccc43)sc2C(N)=O)c1`
1

Given `Nc1nonc1-c1nc2cnccc2n1C1CCCCC1` , state whether its inhibition is at least 5%.
1

Hello, the source for this data is ChEMBL document CHEMBL1961873, in case you need it.
